I'd appreciate it if you could supply β-Galactosidase Activity, Cultured Without ATC values for the items below.
System: tet operator sequence
test_summary: β-galactosidase activity of a tetracycline-regulated promoter in transformed E. coli with revTetR, in the presence and absence of anhydrotetracycline (atc)
Format: cell-based, Escherichia coli
experimental_setup: RevTetR isolate cultured in the absence of anhydrotetracycline (ATC)

Q) // query β-Galactosidase Activity, Cultured Without ATC value for entry TetRrevAF6/5: revTetR(BD) V20V I22V E23D D95N H100P (protein, Modified tetracycline repressor, revTetR(BD) V20V I22V E23D D95N H100P) MSRLDKSKVINSALELLNEVGVDGLTTRKLAQKLGVEQPTLYWHVKNKRALLDALAVEILARHHDYSLPAAGESWQSFLRNNAMSFRRALLRYRNGAKVPLGTRPDEKQYDTVETQLRFMTENGFSLRDGLYAISAVSHFTLGAVLEQQEHTAALTDRPAAPDENLPPLLREALQIMDSDDGEQAFLHGLESLIRGFEVQLTALLQIV
A) 102.848

Q) What do you have for TetRrevAtc4-11: revTetR(BD) L55L A56P R62S (protein, Modified tetracycline repressor, revTetR(BD) L55L A56P R62S) MSRLDKSKVINSALELLNEVGIEGLTTRKLAQKLGVEQPTLYWHVKNKRALLDALPVEILASHHDYSLPAAGESWQSFLRNNAMSFRRALLRYRDGAKVHLGTRPDEKQYDTVETQLRFMTENGFSLRDGLYAISAVSHFTLGAVLEQQEHTAALTDRPAAPDENLPPLLREALQIMDSDDGEQAFLHGLESLIRGFEVQLTALLQIV ?
A) 103.132
